Values compiled from patent US8835472B2.

# assayTarget: human ACC2 (Homo sapiens (Human))
testReadout: IC50 (nM)
Answer format: numeric, nM implied, no suffix.

// returns IC50 for CCOc1ccc(C#Cc2ccc(CC(C)NC(=O)CF)cc2)cc1 (stereo not drawn) with human ACC2 (Homo sapiens (Human)); value = 410

Record CC(=O)NC(C)Cc1ccc(C#Cc2cnc(NCc3cccc(C)c3)nc2)cc1 (stereo not drawn) ; system human ACC2 (Homo sapiens (Human)); IC50 = 970

Okay, next one:
Entry CC(=O)NC(C)Cc1ccc(C#Cc2cnc(OC(C)c3ccncc3)nc2)cc1 (stereo not drawn) ; assay system human ACC2 (Homo sapiens (Human)); IC50 recorded at 2300

* * *

For reference, IC50 measured on human ACC2 (Homo sapiens (Human)):
Report the figure in nM without appending any unit label.

Worked cases, IC50 given:
Given item C[C@H](NC(=O)C1CC1)c1ccc(C#Cc2cnc(OC3CCC3)nc2)cc1 , the value recorded as its IC50 is 450

Memo: CC(=O)NC(C)Cc1ccc(C#Cc2ccc(OCCc3cn[nH]c3)cc2)cc1 (stereo not drawn) , reported IC50: 420

Now, please, on to the next compound.
Notebook: COC(=O)NCC(C)c1ccc(C#Cc2cnc(OC3CCC3)nc2)cc1 (stereo not drawn) , IC50 read as 520

* * *

Data export: IC50 values recorded with human ACC2 (Homo sapiens (Human), UniProt O00763).
Sequence (O00763 129-2458): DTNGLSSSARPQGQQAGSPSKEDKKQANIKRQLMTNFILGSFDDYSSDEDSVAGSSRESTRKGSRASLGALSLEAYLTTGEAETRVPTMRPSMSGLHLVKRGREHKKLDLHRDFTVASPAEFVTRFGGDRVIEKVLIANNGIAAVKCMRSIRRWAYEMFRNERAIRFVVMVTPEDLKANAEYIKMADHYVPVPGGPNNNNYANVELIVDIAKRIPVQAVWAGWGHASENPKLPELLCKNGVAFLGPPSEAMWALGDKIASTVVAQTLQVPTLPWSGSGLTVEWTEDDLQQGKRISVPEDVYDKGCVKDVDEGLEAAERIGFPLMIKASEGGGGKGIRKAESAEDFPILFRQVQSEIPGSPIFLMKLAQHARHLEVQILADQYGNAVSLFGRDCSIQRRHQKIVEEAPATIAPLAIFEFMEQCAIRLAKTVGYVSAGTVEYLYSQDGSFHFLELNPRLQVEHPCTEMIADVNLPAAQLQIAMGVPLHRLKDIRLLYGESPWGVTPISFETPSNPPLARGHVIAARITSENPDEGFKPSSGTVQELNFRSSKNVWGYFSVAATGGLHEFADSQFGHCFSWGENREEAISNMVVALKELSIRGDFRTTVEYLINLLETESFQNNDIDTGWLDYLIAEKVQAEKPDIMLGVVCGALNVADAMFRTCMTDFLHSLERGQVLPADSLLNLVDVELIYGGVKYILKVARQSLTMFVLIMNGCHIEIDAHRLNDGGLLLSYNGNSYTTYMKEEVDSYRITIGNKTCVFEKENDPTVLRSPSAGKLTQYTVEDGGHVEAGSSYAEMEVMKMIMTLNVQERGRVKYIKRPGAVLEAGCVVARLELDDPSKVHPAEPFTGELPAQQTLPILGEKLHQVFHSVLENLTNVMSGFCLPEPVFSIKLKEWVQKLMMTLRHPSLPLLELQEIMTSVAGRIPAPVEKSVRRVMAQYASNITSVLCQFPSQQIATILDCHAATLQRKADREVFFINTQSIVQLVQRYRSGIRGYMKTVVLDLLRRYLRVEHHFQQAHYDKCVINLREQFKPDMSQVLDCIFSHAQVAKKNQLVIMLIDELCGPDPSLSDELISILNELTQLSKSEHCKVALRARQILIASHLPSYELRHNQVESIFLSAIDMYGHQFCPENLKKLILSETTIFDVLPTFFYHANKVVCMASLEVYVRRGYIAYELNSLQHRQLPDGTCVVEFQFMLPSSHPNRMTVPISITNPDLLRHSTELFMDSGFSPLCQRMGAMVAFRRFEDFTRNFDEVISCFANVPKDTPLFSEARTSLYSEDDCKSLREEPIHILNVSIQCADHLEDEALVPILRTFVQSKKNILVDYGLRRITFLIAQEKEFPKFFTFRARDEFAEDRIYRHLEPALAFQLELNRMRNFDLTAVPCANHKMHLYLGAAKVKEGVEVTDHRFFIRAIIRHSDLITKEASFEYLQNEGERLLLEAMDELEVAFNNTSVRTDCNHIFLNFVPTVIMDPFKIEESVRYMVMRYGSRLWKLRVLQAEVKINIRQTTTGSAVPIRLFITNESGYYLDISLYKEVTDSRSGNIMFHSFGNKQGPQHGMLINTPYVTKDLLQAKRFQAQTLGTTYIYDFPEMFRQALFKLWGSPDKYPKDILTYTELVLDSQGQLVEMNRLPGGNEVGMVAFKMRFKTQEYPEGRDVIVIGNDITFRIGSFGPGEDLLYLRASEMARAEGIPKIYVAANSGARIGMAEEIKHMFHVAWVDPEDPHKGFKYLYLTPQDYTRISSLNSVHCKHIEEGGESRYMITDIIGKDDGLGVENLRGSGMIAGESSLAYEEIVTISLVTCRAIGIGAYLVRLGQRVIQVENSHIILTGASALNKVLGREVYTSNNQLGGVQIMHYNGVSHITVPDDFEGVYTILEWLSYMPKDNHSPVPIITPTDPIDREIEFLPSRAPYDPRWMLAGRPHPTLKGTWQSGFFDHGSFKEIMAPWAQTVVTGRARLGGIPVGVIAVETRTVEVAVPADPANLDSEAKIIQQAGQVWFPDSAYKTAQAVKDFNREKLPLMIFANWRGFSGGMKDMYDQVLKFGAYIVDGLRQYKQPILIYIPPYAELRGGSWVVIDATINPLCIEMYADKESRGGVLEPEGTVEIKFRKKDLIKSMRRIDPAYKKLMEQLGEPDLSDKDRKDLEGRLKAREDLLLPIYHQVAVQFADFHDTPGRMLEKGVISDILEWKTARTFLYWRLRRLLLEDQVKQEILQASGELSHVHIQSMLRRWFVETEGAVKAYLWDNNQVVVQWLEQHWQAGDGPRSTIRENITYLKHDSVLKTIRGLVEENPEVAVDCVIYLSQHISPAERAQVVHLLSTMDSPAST
Numeric only. Scale: nM

So for CC(=O)NC(C)Cc1ccc(C#Cc2ccc(OC3COC3)cc2)cc1 (centres unmarked) , the logged IC50 turned out to be 200

Kindly note the recorded IC50 for CCOc1ccc(C#Cc2ccc(CCNC(C)=O)cc2)cc1 , which is 430

The reported value for CC(=O)NC(C)Cc1ccc(C#Cc2ccnc(N3CCC(C(F)(F)F)CC3)n2)cc1 (centres unmarked) in terms of IC50 is 510

The value of IC50 measured for the compound CC(=O)NC(C)Cc1ccc(C#Cc2ccc(OC(F)(F)F)cc2C#N)cc1 (centres unmarked) turned out to be 7500

For this compound ( CCC(C)CNc1ncc(C#Cc2ccc(CC(C)NC(C)=O)cc2)cn1 (centres unmarked) ), measured IC50 is 1000

Lab note: CCNC(=O)NCC(C)c1ccc(C#Cc2cnc(OC3CCC3)nc2)cc1 (centres unmarked) gave IC50 of 2300

compound CCN(CC)c1ncc(C#Cc2ccc(CC(C)NC(C)=O)cc2)cn1 (centres unmarked) , IC50 observed: 1200

Item: COc1cc(C#Cc2ccc(CC(C)NC(=O)C3CC3)cc2)ccn1 (centres unmarked) | IC50: 2000

The compound listed as CNc1ncc(C#Cc2ccc(CC(C)NC(C)=O)cc2)cn1 (centres unmarked) shows IC50 equal to 250

Reported IC50 for CC(=O)NC(C)Cc1ccc(C#Cc2ccc(Oc3ccccc3)nc2)cc1 (centres unmarked) was 200

Form: compound = CCCOc1cc(C#Cc2ccc([C@@H](C)NC(C)=O)cc2)ccn1 ; IC50 = 13400

# IC50 of CCOc1ccc(C#Cc2ccc(CC(C)NC(=O)N(C)CC)cc2)cc1 (centres unmarked) = 360

For this compound ( CC(=O)NC(C)Cc1ccc(C#Cc2ccc(C(=O)N3CCC(C)(C)CC3)cc2)cc1 (centres unmarked) ), measured IC50 is 1900

Reported IC50 of CC(=O)NC(C)Cc1ccc(C#Cc2ccc(C(C)(C)C)cc2C#N)cc1 (centres unmarked) : 270

Reported IC50 for COCCOc1ccc(C#Cc2ccc(CC(C)NC(C)=O)cc2)nn1 (centres unmarked) was 16400

// IC50 value for CC(Cc1ccc(C#Cc2ccc(OC(C)C)cc2)cc1)NC(=O)C1CC1 (centres unmarked) : 440

Recorded result, C=CC(=O)NC(C)c1ccc(C#Cc2ccc(OCC)cc2)cc1 (centres unmarked) , IC50: 710
